# Target entity: NMDA receptor (NR1 + NR2 subunits) (Rattus norvegicus, UniProt P35439+Q00960)
# Sequence (Q00960 27-1482, other chains not shown): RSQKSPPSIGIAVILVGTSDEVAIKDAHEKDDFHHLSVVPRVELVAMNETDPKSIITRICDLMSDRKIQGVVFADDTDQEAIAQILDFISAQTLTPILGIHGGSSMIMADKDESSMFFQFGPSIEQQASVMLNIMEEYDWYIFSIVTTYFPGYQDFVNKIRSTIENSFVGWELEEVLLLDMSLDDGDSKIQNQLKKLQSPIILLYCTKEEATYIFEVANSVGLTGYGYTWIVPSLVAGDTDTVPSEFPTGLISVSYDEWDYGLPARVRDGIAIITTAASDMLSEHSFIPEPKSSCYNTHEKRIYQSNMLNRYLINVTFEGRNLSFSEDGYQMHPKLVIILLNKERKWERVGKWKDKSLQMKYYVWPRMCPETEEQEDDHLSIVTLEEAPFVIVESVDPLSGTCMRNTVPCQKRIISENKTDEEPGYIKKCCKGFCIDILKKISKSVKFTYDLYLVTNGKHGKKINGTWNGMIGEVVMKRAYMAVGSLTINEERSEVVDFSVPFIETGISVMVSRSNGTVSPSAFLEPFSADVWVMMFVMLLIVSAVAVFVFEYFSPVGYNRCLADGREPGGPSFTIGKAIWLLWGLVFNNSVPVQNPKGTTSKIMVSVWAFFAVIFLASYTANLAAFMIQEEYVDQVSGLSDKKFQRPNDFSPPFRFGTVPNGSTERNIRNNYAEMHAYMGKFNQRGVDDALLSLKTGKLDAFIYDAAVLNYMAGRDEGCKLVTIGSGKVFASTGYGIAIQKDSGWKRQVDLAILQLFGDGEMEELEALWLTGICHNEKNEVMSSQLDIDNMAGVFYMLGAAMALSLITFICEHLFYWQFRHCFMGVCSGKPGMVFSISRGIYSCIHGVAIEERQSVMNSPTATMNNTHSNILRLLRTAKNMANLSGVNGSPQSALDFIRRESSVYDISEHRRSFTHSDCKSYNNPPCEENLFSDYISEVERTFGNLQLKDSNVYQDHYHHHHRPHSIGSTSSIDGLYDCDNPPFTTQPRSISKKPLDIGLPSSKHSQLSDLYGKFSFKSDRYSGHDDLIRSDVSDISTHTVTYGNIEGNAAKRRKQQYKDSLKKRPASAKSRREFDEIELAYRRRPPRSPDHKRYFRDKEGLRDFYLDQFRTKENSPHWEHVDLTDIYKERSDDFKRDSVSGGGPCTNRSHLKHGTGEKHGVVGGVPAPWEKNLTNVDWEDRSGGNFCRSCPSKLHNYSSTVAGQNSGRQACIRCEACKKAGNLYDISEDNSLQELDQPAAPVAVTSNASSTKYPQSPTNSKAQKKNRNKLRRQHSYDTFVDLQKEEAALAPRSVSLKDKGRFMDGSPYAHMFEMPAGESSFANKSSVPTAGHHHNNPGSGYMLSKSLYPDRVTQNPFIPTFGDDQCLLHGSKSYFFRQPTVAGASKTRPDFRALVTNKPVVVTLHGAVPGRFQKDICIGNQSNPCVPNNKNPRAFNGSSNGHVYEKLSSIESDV
# Assay info: Two electrode voltage clamp recording from Xenopus laevis oocytes (pH dependence of NMDA antagonism)
# Assay type: cell-based
# Run parameters: pH 6.9; Table 20; read-out: IC50 at pH 6.9
# Procedure: cRNA was synthesized from linearized template cDNA for rat glutamate receptor subunits according to manufacturer specifications (Ambion). Quality of synthesized cRNA was assessed by gel electrophoresis, and quantity was estimated by spectroscopy and gel electrophoresis. […] Two electrode voltage-clamp recordings were made 2-7 days post-injection as previously described. […] Oocytes were recorded under voltage clamp at −40 mV. […]
Measured endpoint: IC50 (nM)

Answered cases to consult:
(Q) I would be grateful if you could share the reported IC50 for COC(=O)Nc1ccc(OCCCN2CCN(c3ccc(F)cc3)CC2)cc1 .
(A) 1540

(Q) I would be grateful if you could share the reported IC50 for NC(=O)Nc1ccc(OCCCN2CCN(c3ccc(F)cc3)CC2)cc1 .
(A) 117

P = NC(=O)Nc1ccc(OCCCN2CCN(c3ccc(F)c(F)c3)CC2)cc1
Q = CCNC(=O)Nc1ccc(OCCCN2CCN(c3ccc(F)cc3)CC2)cc1
R = C=C(COc1ccc(NC(N)=O)cc1)CN1CCN(c2ccc(F)c(F)c2)CC1
(Q) Rank ascending by IC50. Answer by writing out the labels in the requested order.
(A) P, R, Q

----------
# Target entity: NMDA receptor (NR1 + NR2 subunits) (Rattus norvegicus, UniProt P35439+Q00960)
# Assay info: Two electrode voltage clamp recording from Xenopus laevis oocytes (pH dependence of NMDA antagonism)
# Type: cell-based
# Run parameters: pH 7.6; Table 22; read-out: IC50 pH 7.6
Measured endpoint: IC50 (nM)

Answered cases to consult:
(Q) I would be grateful if you could share the reported IC50 for O[C@H](COc1ccc2[nH]ncc2c1)CN1CCN(c2ccc(Cl)cc2)CC1 .
(A) 3830

(Q) I would be grateful if you could share the reported IC50 for O=c1[nH]c2ccc(OC[C@@H](O)CN3CCN(c4ccc(Cl)cc4)CC3)cc2[nH]1 [drawing 781] .
(A) 103

(Q) I would be grateful if you could share the reported IC50 for O=c1[nH]c2ccc(OC[C@@H](O)CN3CCN(c4ccc(Cl)cc4)CC3)cc2o1 [drawing 776] .
(A) 447

I = O=c1ccc2cc(OC[C@@H](O)CN3CCN(c4ccc(Cl)cc4)CC3)ccc2[nH]1
II = CS(=O)(=O)Nc1ccc(OC[C@@H](O)CN2CCN(c3ccc(Cl)cc3)CC2)cc1
(Q) Record comparison, field IC50: mark the lower of I and II . The response must carry the label of the picked entry.
(A) II
(II: 270 nM, I: 550 nM)

1 = Oc1ccc(OC[C@@H](O)CN2CCN(c3ccc(Cl)cc3)CC2)cc1 [drawing 775]
2 = O=C1Cc2cc(OC[C@@H](O)CN3CCN(c4ccc(Cl)cc4)CC3)ccc2N1
(Q) Endpoint returns whichever of 1 and 2 has the numerically higher IC50. The response must carry the label of the picked entry.
(A) 1
(1: 555 nM, 2: 29 nM)

----------
# System: Salmonella typhimurium TA98, TA102
# Assay info: Ames test for genotoxicity
# Run parameters: 8 conc., 1.5-5000 μg/plate; +/− S9 both; strains TA98, TA102
Measured endpoint: Genotoxicity (Ames) Result

Answered cases to consult:
(Q) Request body: readout Genotoxicity (Ames) Result, system Salmonella typhimurium TA98, TA102, query O=c1[nH]c2ccc(OC[C@@H](O)CN3CCN(c4ccc(Cl)cc4)CC3)cc2o1 . Return the value.
(A) No positive

(Q) Request body: readout Genotoxicity (Ames) Result, system Salmonella typhimurium TA98, TA102, query O=c1[nH]c2ccc(OC[C@@H](O)CN3CCN(c4ccc(Cl)cc4)CC3)cc2[nH]1 . Return the value.
(A) No positive

(Q) Request body: readout Genotoxicity (Ames) Result, system Salmonella typhimurium TA98, TA102, query CCCCN(CCc1ccc(Cl)c(Cl)c1)CC(O)COc1ccc(NS(C)(=O)=O)cc1 (stereo not drawn) . Return the value.
(A) No positive

(Q) Request body: readout Genotoxicity (Ames) Result, system Salmonella typhimurium TA98, TA102, query Nc1ccc(OC[C@@H](O)CN2CCN(c3ccc(Cl)c(Cl)c3)C2=O)cc1 . Return the value.
(A) No positive

Further cases:
(Q) Request body: readout Genotoxicity (Ames) Result, system Salmonella typhimurium TA98, TA102, query NC(=O)Nc1ccc(OC[C@@H](O)CN2CCN(c3ccc(Cl)cc3)CC2)cc1 . Return the value.
(A) No positive

(Q) Request body: readout Genotoxicity (Ames) Result, system Salmonella typhimurium TA98, TA102, query Nc1ccc(OC[C@@H](O)CN2CCN(c3ccc(Cl)cc3)CC2)cc1 . Return the value.
(A) No positive
